Recorded GI50, one value per entry.
- System: DLD-1
- Experimental details: NCI tumour cell line growth inhibition, 48 h
Calls of active or inactive are those of the source. Cut-off read from the data, not from the text of the source: active = GI50 up to about 1.1 µM and inactive = higher.

// solved cases for GI50 follow
For the compound Cc1nc2ccccc2nc1CC(=O)C(=O)Nc1ccc(Cl)cc1Cl , give its measured GI50 value. > 100 µM (inactive)

For the compound CC(=O)NC1=C(NC(C)(C)C)C(=O)c2ccccc2C1=O , give its measured GI50 value. 15.9 µM (inactive)

For the compound Cc1cc(Cc2cc(C)c(NC(=O)C(=O)C3C(=O)NC(=S)NC3=O)c(C(C)C)c2)cc(C(C)C)c1NC(=O)C(=O)C1C(=O)NC(=S)NC1=O , give its measured GI50 value. > 100 µM (inactive)

For the compound CC1=C(C(=O)Nc2ccccc2C)C(c2ccccc2C)C(C(=O)Nc2ccccc2C)=C(C)N1 , give its measured GI50 value. 14.7 µM (inactive)

For the compound O=C(Nc1ccc(Cl)cc1Cl)c1c/c(=N\O)c2ccc(O)cc2o1 , give its measured GI50 value. > 100 µM (inactive)

Others:
For the compound CNC(=O)OCc1nc([S+](C)[O-])n(C)c1COC(=O)NC (configuration not stated) , give its measured GI50 value. > 100 µM (inactive)

For the compound CCCN(CCC)C(=O)Cc1c2n(c3ccccc13)Cc1ccccc1-2 , give its measured GI50 value. 63.4 µM (inactive)

For the compound CNC1=Nc2ccc(Cl)cc2C(c2ccccc2)=NN1C , give its measured GI50 value. > 100 µM (inactive)

====

Recorded GI50, one value per entry.
- Tested on: UO-31
- Experimental details: NCI tumour cell line growth inhibition, 48 h
The source made the active and inactive calls. Rule as the data show it: active = GI50 up to about 1.1 µM and inactive = higher.

For the molecule Cc1noc(/N=C2\C=C(O)C(=O)c3ccccc32)c1C , give its measured GI50 value. 3.18 µM (inactive)

Others:
For the molecule O=C(N/N=C(\c1nc2ccc(Cl)cc2nc1O)C(O)c1ccccc1Cl)c1ccncc1 (centres undefined) , give its measured GI50 value. > 100 µM (inactive)

For the molecule Cc1ccc(S(=O)(=O)Nc2cccc(C)c2C)cc1 , give its measured GI50 value. 30.8 µM (inactive)

For the molecule O=C(/C=C/NC(=O)OCc1ccccc1)OCc1ccccc1 , give its measured GI50 value. 32.5 µM (inactive)

For the molecule CCO/N=[N+](\[O-])N(CC)CC , give its measured GI50 value. > 100 µM (inactive)

For the molecule Cc1nc(N)c(N2CCN(C(=O)O)CC2)c(O)n1 , give its measured GI50 value. > 100 µM (inactive)

For the molecule COC(=O)CC(C(C(=O)OCc1ccccc1)C(C)O)N1C(=O)OCC1c1ccccc1 (centres undefined) , give its measured GI50 value. 24.3 µM (inactive)

For the molecule COc1ccc(-c2c3ccccc3c(-c3ccc(OC)cc3)c3ccccc23)cc1 , give its measured GI50 value. > 100 µM (inactive)

For the molecule Cc1c(N)nc(C(CC(N)=O)NCC(N)C(N)=O)nc1C(=O)NC(C(=O)NC(C)C(O)C(C)C(=O)NC(C(=O)NCCc1nc(-c2nc(C(=O)NCCCNCCCCN)cs2)cs1)C(C)O)C(OC1OC(CO)C(O)C(O)C1OC1OC(CO)C(O)C(OC(N)=O)C1O)c1c[nH]cn1 (centres undefined) , give its measured GI50 value. 2.36 µM (inactive)

====

- Tested on: OVCAR-8
- Experimental details: NCI tumour cell line growth inhibition, 48 h
Active and inactive are the calls of the source. Rule as the data show it: active = GI50 up to about 1.1 µM and inactive = higher.
Allowed answers: active, inactive

Use these answered entries as a reference point.
How did this test come out for Oc1ccc(CNCc2ccccc2)c2cccnc12 ? active

How did this test come out for Cn1cc(C(=O)C[n+]2ccccc2)c2ccccc21 ? inactive

How did this test come out for COc1cc2nc(-c3cccs3)[nH]c(=O)c2cc1OC ? inactive

How did this test come out for CCOC(=O)c1[nH]c(CN(C)Cc2[nH]c(C(=O)OCC)c(C)c2C(=O)OCc2ccccc2)c(C(=O)OCc2ccccc2)c1C ? inactive

How did this test come out for C=CCOC1=C(OC(C)=O)C(=O)OC1C1COC(C)(C)O1 (configuration not stated) ? inactive

Please turn your attention to the following entry.
How did this test come out for O=C(Nc1ccc(Cl)cc1)c1cc2c(cc1Cl)SC(NNCCO)=NS2(=O)=O ? inactive

====

- Tested on: SF-539
- Experimental details: NCI tumour cell line growth inhibition, 48 h
Calls of active or inactive are those of the source. Rule as the data show it: active = GI50 up to about 1.1 µM and inactive = higher.
Allowed answers: active, inactive

Use these answered entries as a reference point.
How did this test come out for COc1cc(OC)nc(-n2c(N)c(C#N)c3ccc([N+](=O)[O-])cc3c2=O)n1 ? inactive

How did this test come out for CC1OC(n2cc(F)c(=O)[nH]c2=O)C=CC1O (stereo unspecified) ? inactive

How did this test come out for Cc1n[nH]c(=O)c2c3c([nH]c12)-c1ccccc1C3 ? inactive

How did this test come out for Cc1cccc(-n2c(=S)[nH]c3c(sc(=O)n3-c3ccccc3C)c2=O)c1 ? inactive

Others:
How did this test come out for COC(=O)CP1(=O)OC2C(C3CCC2(C)C3(C)C)N1c1cc(C(F)(F)F)cc(C(F)(F)F)c1 (stereo unspecified) ? inactive

How did this test come out for c1ccc(-c2cnc3nc4ccccc4nc3n2)cc1 ? inactive

====

Recorded GI50, one value per entry.
- Tested on: HCT-116
- Experimental details: NCI tumour cell line growth inhibition, 48 h
The source made the active and inactive calls. Rule as the data show it: active = GI50 up to about 1.1 µM and inactive = higher.

For the compound COC(=O)CCCC(=O)/C(=N\Nc1ccc(Cl)cc1)Nc1c(Cl)cccc1Cl , give its measured GI50 value. 38.9 µM (inactive)

For the compound Brc1ccc2c(-c3csc(-c4c[nH]c5cc(Br)ccc45)n3)c[nH]c2c1 , give its measured GI50 value. 14.5 µM (inactive)

For the compound CC1OC(OC2C(CO)OC(O[C@H]3CC[C@@]4(C)C(=CC[C@H]5[C@@H]6C[C@@H]7O[C@]8(CC[C@@H](C)CN8)[C@@H](C)[C@@H]7[C@@]6(C)CC[C@@H]54)C3)C(O)C2O)C(O)C(O)C1O (stereo partly drawn) , give its measured GI50 value. > 100 µM (inactive)

Others:
For the compound Cc1cccc(-n2c(=S)[nH]c3c(sc(=O)n3-c3ccccc3C)c2=O)c1 , give its measured GI50 value. > 100 µM (inactive)

For the compound Cn1c(=O)sc2cc(C(=S)N3CCC(Cc4ccccc4)CC3)ccc21 , give its measured GI50 value. 45.9 µM (inactive)

For the compound O=C(Nc1ccc(Cl)cc1)c1cc2c(cc1Cl)SC(NNCCO)=NS2(=O)=O , give its measured GI50 value. > 100 µM (inactive)

For the compound Cc1ccc(/N=N/c2c(C)nn(C(=O)CC(=O)Nc3ccccc3)c2C)cc1C , give its measured GI50 value. > 100 µM (inactive)

For the compound COC(=O)c1c(O)ccc2c1c1c(n2CCc2ccccc2)C(=O)c2ccccc2C1 , give its measured GI50 value. 15.3 µM (inactive)

====

- Test system: ACHN
- Experimental details: NCI tumour cell line growth inhibition, 48 h
Active and inactive are the calls of the source. No stated cut-off is given here; in the data, active = GI50 up to about 1.1 µM and inactive = higher.
Allowed answers: 1 for active, 0 for inactive

How did this test come out for C=CCC(C)C12CCNC(Cc3ccc(O)cc31)C2C (stereo unspecified) ? 0

How did this test come out for c1ccc(C/C(=N\Nc2nc3ccccc3o2)c2ccccn2)cc1 ? 1

How did this test come out for O=C(Cc1ccccc1)NN1C(=O)C(Cl)C1c1ccccc1O (stereo unspecified) ? 0

How did this test come out for CC1=NOC2(C1)/C(=N/O)CCC/C2=N\O (stereo unspecified) ? 0

How did this test come out for CCO/N=[N+](\[O-])N(CC)CC ? 0

Others:
How did this test come out for Nc1ccc(S(=O)(=O)c2ccc(NC(=O)c3cccnc3)cc2)cc1 ? 0

How did this test come out for O=c1c(Cc2ccccc2)c(-c2ccccc2)[nH]n1C1=NCCN1 ? 0

How did this test come out for CCOC(=O)n1c2ccccc2c2c(O)c(OC)c3c(c21)C(=O)NC3=O ? 0

====

Recorded GI50, one value per entry.
- Tested on: RXF 631
- Experimental details: NCI tumour cell line growth inhibition, 48 h
Active and inactive are the calls of the source. Cut-off read from the data, not from the text of the source: active = GI50 up to about 1.1 µM and inactive = higher.

For the molecule CCOC(=O)Cn1c(=O)[nH]c(=O)c2c1ncn2Cc1ccccc1 , give its measured GI50 value. > 100 µM (inactive)

====

Recorded GI50, one value per entry.
- Test system: OVCAR-4
- Experimental details: NCI tumour cell line growth inhibition, 48 h
Activity calls are given as the source filed them. No stated cut-off is given here; in the data, active = GI50 up to about 1.1 µM and inactive = higher.

// solved cases for GI50 follow
# lookup: OVCAR-4 GI50, key = O=C(Cc1nc(-c2ccccc2)cc(=O)n1-c1ccccc1Cl)c1ccncc1 > 100 µM (inactive)

# lookup: OVCAR-4 GI50, key = CC(=O)O[C@H]1CN(S(=O)(=O)c2ccc(C)cc2)C[C@@H]1C1CCCCC1 31.9 µM (inactive)

# lookup: OVCAR-4 GI50, key = Cn1nc2ccc3nccc(NCCNCCCl)c3c2n1 > 100 µM (inactive)

# lookup: OVCAR-4 GI50, key = C/C=N\N1C(=O)c2ccccc2C1=O > 100 µM (inactive)

# lookup: OVCAR-4 GI50, key = O=C(c1ccccc1)C1OC12C(=O)Nc1c(Cl)cc(Cl)cc12 (stereo unspecified) 8.2 µM (inactive)

Others:
# lookup: OVCAR-4 GI50, key = Cc1cc(N(CCC#N)CCC#N)ccc1/C(Sc1ccccc1)=C(\NC(=O)/C=C/c1ccccc1)C(=O)Sc1ccccc1 3.06 µM (inactive)

# lookup: OVCAR-4 GI50, key = CN(C)CCCN1c2ccccc2CCc2ccc([N+](=O)[O-])cc21 35.5 µM (inactive)

# lookup: OVCAR-4 GI50, key = O=C(Cn1c(=O)oc2ccc(C(=O)c3ccccc3Cl)cc21)c1ccc([N+](=O)[O-])cc1 10.9 µM (inactive)

# lookup: OVCAR-4 GI50, key = COc1cc2c(cc1OC)CC(=O)c1cc(OC)c(OC)cc1/C=C\2 > 12.5 µM (inactive)

# lookup: OVCAR-4 GI50, key = O=C(O)CN1CCNCCN(CC(=O)O)CCN(CC(=O)O)CCNCC1 > 100 µM (inactive)

# lookup: OVCAR-4 GI50, key = Nn1nnc2ccccc21 > 100 µM (inactive)
